tested on: human hepatocyte growth factor receptor mRNA; test: Inhibition of human hepatocyte growth factor receptor mRNA levels in T-24 cells, quantitative real-time PCR; conditions: averages from three experiments; also: test concentration or dose not given here
Strand notation (5' to 3'): a small letter for the sugar, then the base; units joined by * are phosphorothioate-linked, units joined directly phosphodiester-linked; [ ] holds rarer units or linkages, { } end groups; capitals alone tell only the bases. e = 2'-O-(2-methoxyethyl) (MOE); [5mC] = 5-methylcytosine; d = 2'-deoxy (DNA)
MEASURE NAME: % INHIB (inhibition of human hepatocyte growth factor receptor mRNA levels) (%)

[
  {
    "SUBSTANCE": "209530 (antisense eT*eT*eA*e[5mC]*eA*dG*dG*dA*dT*d[5mC]*d[5mC]*dA*d[5mC]*dA*dT*eA*eG*eG*eA*eG) [compound 209530]",
    "TEST RESULT": 81
  },
  {
    "SUBSTANCE": "155109 (antisense eA*eG*e[5mC]*eT*e[5mC]*dG*d[5mC]*dT*dG*dT*dT*d[5mC]*dA*dA*dT*eT*eT*e[5mC]*eA*eG) [compound 155109]",
    "TEST RESULT": 80
  },
  {
    "SUBSTANCE": "155110 (antisense eT*e[5mC]*eG*eG*eG*dA*d[5mC]*dA*d[5mC]*dT*dA*dA*d[5mC]*dT*dG*eA*eA*eT*eT*e[5mC]) [compound 155110]",
    "TEST RESULT": 79
  }
]

Data provenance is patent US20040102622A1.
